- protocol: Experimental LogD (partition coefficient)
- recorded_conditions: not stated, Partition Coeff LogD
Positions of bridges follow the written chain, without caps; N, C: chain ends. Non-standard residues stand in square brackets, D forms with d. Residues, ends and D or L forms follow the SMILES beside them. Lys(N3) = [N-]=[N+]=NCCCC[C@H](N)C(=O)O; R8 = C=CCCCCCC[C@@](C)(N)C(=O)O; Cba = N[C@@H](CC1CCC1)C(=O)O; S5 = C=CCCC[C@](C)(N)C(=O)O; βAla = NCCC(=O)O
recorded_metric: logD

>>> assay_value("CC(=O)N[C@@H](CCCCN=[N+]=[N-])C(=O)NCCC(=O)N[C@@H](CC(C)C)C(=O)N[C@H](C)C(=O)N[C@@H](Cc1ccccc1)C(=O)N[C@]1(C)CCCCCCC=CCCC[C@@](C)(C(=O)N[C@@H](CO)C(=O)N[C@@H](C)C(=O)N[C@@H](C)C(N)=O)NC(=O)[C@H](CC2CCC2)NC(=O)[C@H](CCC(N)=O)NC(=O)[C@H](C)NC(=O)[C@H](Cc2c[nH]c3ccccc23)NC(=O)[C@H](Cc2ccc(O)cc2)NC(=O)[C@H](CCC(=O)O)NC1=O [MP-7471] (Ac-[Lys(N3)][βAla]L[dA]F[R8]EYWAQ[Cba][S5]SAA-NH2; staple 6-13)")
2.95

---

- Tested on: HCT116 cells
- protocol: Lactate dehydrogenase (LDH) release assay
- Assay type: cell-based
recorded_metric: LDH: Cytotoxicity assay: % Effect (%)

>>> assay_value("CC(=O)N[C@@H](CC(C)C)C(=O)N[C@H](C(=O)N[C@@H](Cc1ccccc1)C(=O)NC(C)(C)C(=O)N[C@@H](CCC(=O)O)C(=O)N[C@@H](Cc1ccc(O)cc1)C(=O)N[C@@H](Cc1c[nH]c2ccccc12)C(=O)N[C@@H](CCC(N)=O)C(=O)N[C@H](CC(C)C)C(=O)N[C@@H](CC1CCC1)C(=O)NC(C)(C)C(=O)N[C@@H](CO)C(=O)N[C@@H](C)C(=O)N[C@@H](C)C(N)=O)[C@@H](C)O [MP-788]")
8.3

---

Catalogue of logD readings, one per entry.
- protocol: Experimental LogD (partition coefficient)
- recorded_conditions: not stated, Partition Coeff LogD
Positions of bridges follow the written chain, without caps; N, C: chain ends. Non-standard residues stand in square brackets, D forms with d. Residues, ends and D or L forms follow the SMILES beside them. Lys(N3) = [N-]=[N+]=NCCCC[C@H](N)C(=O)O; R8 = C=CCCCCCC[C@@](C)(N)C(=O)O; Cba = N[C@@H](CC1CCC1)C(=O)O; S5 = C=CCCC[C@](C)(N)C(=O)O; βAla = NCCC(=O)O
recorded_metric: logD

>>> assay_value("CC(=O)N[C@@H](CCCCN=[N+]=[N-])C(=O)NCCC(=O)N[C@@H](CC(C)C)C(=O)N[C@H](C(=O)N[C@@H](Cc1ccccc1)C(=O)N[C@]1(C)CCCCCCC=CCCC[C@@](C)(C(=O)N[C@@H](CO)C(=O)N[C@@H](C)C(=O)N[C@@H](C)C(N)=O)NC(=O)[C@H](CC2CCC2)NC(=O)[C@@H](C)NC(=O)[C@H](C)NC(=O)[C@H](Cc2c[nH]c3ccccc23)NC(=O)[C@H](Cc2ccc(O)cc2)NC(=O)[C@H](CCC(=O)O)NC1=O)[C@@H](C)O [MP-474] (Ac-[Lys(N3)][βAla]LTF[R8]EYWA[dA][Cba][S5]SAA-NH2; staple 6-13)")
3.07
>>> assay_value("CC(C)C[C@@H]1NC(=O)[C@H](C)NC(=O)[C@H](Cc2c[nH]c3ccccc23)NC(=O)[C@H](Cc2ccc(O)cc2)NC(=O)[C@H](CCC(=O)O)NC(=O)[C@](C)(NC(=O)[C@H](Cc2ccccc2)NC(=O)[C@H](CO)NC(=O)[C@@H](NC(=O)CCNC(=O)[C@@H](N)CCCCN=[N+]=[N-])[C@@H](C)O)CCCCCCC=CCCC[C@@](C)(C(N)=O)NC(=O)[C@H](CC(C)C)NC1=O")
2.7
